- TEST_DESCRIPTION: blocking HSF1-driven luciferase expression – cell-based, NIH3T3, luminescence, primary screen (AID 2098);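 note: luciferase reports HSF-1 transcriptional activity via heat shock element; 0% = median of DMSO wells and -100% = zero luminescence signal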
- EXPERIMENTAL_CONDITIONS: NIH3T3-HGL HSE-luciferase, MG132-induced, luminescence 8 h; active compounds read low; screened at 7.5 µM (by protocol)
About 2,300 (0.77%) of roughly 300,000 compounds were called active. The sample holds actives, similar compounds and a random draw of the others, so the mix is not that of the screen.
Assignment: determine reported activity change, negative = inhibition for the given molecules.
Answers are plain numbers, in %.

Consider the worked cases shown below.
- MOLECULE: "c1ccc(C[C@H]2CNCCN2CCC23CC4CC(CC(C4)C2)C3)cc1"
  UNIT_INFO: "%"
  activity change, negative = inhibition: 0.124
- MOLECULE: "COc1ccc(Cl)cc1C=CC=Nc1ccc(S(N)(=O)=O)cc1"
  UNIT_INFO: "%"
  activity change, negative = inhibition: -18.4
- MOLECULE: "CC(=O)c1c(C)[nH]c(C(=O)COC(=O)CCOc2ccc(C)cc2)c1C"
  UNIT_INFO: "%"
  activity change, negative = inhibition: 5.07
- MOLECULE: "COc1ccccc1NC(=O)C(C)OC(=O)c1ccc(-n2cnnn2)cc1 (stereo not given)"
  UNIT_INFO: "%"
  activity change, negative = inhibition: -4.36
- MOLECULE: "Cc1ccc(NC(=O)/C(=C/c2ccc([N+](=O)[O-])cc2)NC(=O)c2ccccc2)cc1"
  UNIT_INFO: "%"
  activity change, negative = inhibition: -1.77

Batch: activity change, negative = inhibition for all items listed.
1. Cc1ccc(C(CNC(=O)Nc2ccccc2)N2CCN(C)CC2)cc1 (stereo not given)
2. CCOC(=O)C1=C(c2ccc(OC)cc2)C(=O)c2ccccc2C1=O
3. Cc1c(NC(=O)CN(C)CC(=O)Nc2ccc(F)c(F)c2F)c(=O)n(-c2ccccc2)n1C
4. Cc1cccc(NC(=O)Nc2ccc(OCc3ccccc3)cc2)n1
5. O=C(Nc1ccccc1)/C(=C/c1ccc([N+](=O)[O-])cc1)NC(=O)c1ccccc1

1: -9.11; 2: 31.1; 3: 1.95; 4: 1.3; 5: -11.2

Reference source for all entries: PubChem BioAssay AID2098
